- Test system: hCA XII (Homo sapiens)
- Construct: gene CA12; recombinant, obtained in-house
- Protocol details: stopped-flow CA inhibition assay
- Assay type: biochemical
- Stated conditions: mean of […] assays, errors ±[…]
Readout kind: Ki (nM)

[
  {
    "Molecule": "NS(=O)(=O)c1ccc(CCn2c(SCC(=O)c3ccc(Cl)cc3)nc3ccccc3c2=O)cc1 [compound 4]",
    "Test system": "hCA XII (Homo sapiens)",
    "Measured number": 10.8
  },
  {
    "Molecule": "NC(=O)CSc1nc2ccccc2c(=O)n1CCc1ccc(S(N)(=O)=O)cc1 [compound 8, 8]",
    "Test system": "hCA XII (Homo sapiens)",
    "Measured number": 2.4
  }
]

###

- Test system: hCA IX (Homo sapiens, UniProt Q16790)
- Construct: gene CA9; recombinant, obtained in-house
- Protocol details: stopped-flow CA inhibition assay
- Format: biochemical
- Stated conditions: mean of […] assays, errors ±[…]
Readout kind: Ki (nM)

[
  {
    "Chem smiles": "NS(=O)(=O)c1ccc(CCn2c(SCC(=O)c3ccc(F)cc3)nc3ccccc3c2=O)cc1",
    "Readout kind": "Ki",
    "Measured number": 16.5
  },
  {
    "Chem smiles": "NS(=O)(=O)c1ccc(CCn2c(SCC(=O)c3ccc(Cl)cc3)nc3ccccc3c2=O)cc1",
    "Readout kind": "Ki",
    "Measured number": 8
  },
  {
    "Chem smiles": "NC(=O)CSc1nc2ccccc2c(=O)n1CCc1ccc(S(N)(=O)=O)cc1",
    "Readout kind": "Ki",
    "Measured number": 34.5
  },
  {
    "Chem smiles": "NS(=O)(=O)c1ccc(CCn2c(SCC(=O)Nc3ccc(F)cc3)nc3ccccc3c2=O)cc1",
    "Readout kind": "Ki",
    "Measured number": 12.7
  }
]

###

- Test system: hCA XII (Homo sapiens, UniProt O43570)
- Construct: gene CA12; recombinant, obtained in-house
- Sequence (O43570 25-354): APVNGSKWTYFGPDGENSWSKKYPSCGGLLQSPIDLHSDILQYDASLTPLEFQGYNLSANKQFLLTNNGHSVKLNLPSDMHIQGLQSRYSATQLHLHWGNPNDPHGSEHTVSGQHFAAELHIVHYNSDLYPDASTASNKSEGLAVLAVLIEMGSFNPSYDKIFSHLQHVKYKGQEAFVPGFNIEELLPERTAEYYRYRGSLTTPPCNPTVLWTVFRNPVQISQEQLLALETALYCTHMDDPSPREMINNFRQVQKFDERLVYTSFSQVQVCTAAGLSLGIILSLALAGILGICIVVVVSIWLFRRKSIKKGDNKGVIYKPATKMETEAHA
- Protocol details: stopped-flow CA inhibition assay
- Assay type: biochemical
Readout kind: Ki (nM)

[
  {
    "Molecule": "COc1ccc(NC(=O)CSc2nc3ccccc3c(=O)n2CCc2ccc(S(N)(=O)=O)cc2)cc1",
    "Readout kind": "Ki",
    "Measured number": 49.1
  },
  {
    "Molecule": "NS(=O)(=O)c1ccc(CCn2c(SCC(=O)c3ccc(Br)cc3)nc3ccccc3c2=O)cc1",
    "Readout kind": "Ki",
    "Measured number": 69.6
  },
  {
    "Molecule": "CC(=O)c1ccc(NC(=O)CSc2nc3ccccc3c(=O)n2CCc2ccc(S(N)(=O)=O)cc2)cc1",
    "Readout kind": "Ki",
    "Measured number": 22.5
  },
  {
    "Molecule": "NS(=O)(=O)c1ccc(CCn2c(SCC(=O)Nc3ccc(F)cc3)nc3ccccc3c2=O)cc1",
    "Readout kind": "Ki",
    "Measured number": 8.7
  },
  {
    "Molecule": "Cc1ccc(C(=O)CSc2nc3ccccc3c(=O)n2CCc2ccc(S(N)(=O)=O)cc2)cc1",
    "Readout kind": "Ki",
    "Measured number": 85.1
  },
  {
    "Molecule": "COc1cc(NC(=O)CSc2nc3ccccc3c(=O)n2CCc2ccc(S(N)(=O)=O)cc2)cc(OC)c1OC",
    "Readout kind": "Ki",
    "Measured number": 16.9
  },
  {
    "Molecule": "NS(=O)(=O)c1ccc(CCn2c(SCC(=O)Nc3ccccc3)nc3ccccc3c2=O)cc1",
    "Readout kind": "Ki",
    "Measured number": 38.4
  },
  {
    "Molecule": "NS(=O)(=O)c1ccc(CCn2c(SCC(=O)Nc3ccc(Cl)cc3)nc3ccccc3c2=O)cc1",
    "Readout kind": "Ki",
    "Measured number": 31.6
  },
  {
    "Molecule": "NS(=O)(=O)c1ccc(CCn2c(SCC(=O)c3ccccc3)nc3ccccc3c2=O)cc1",
    "Readout kind": "Ki",
    "Measured number": 13
  },
  {
    "Molecule": "NS(=O)(=O)c1ccc(CCn2c(SCC(=O)NCc3ccc(F)cc3)nc3ccccc3c2=O)cc1",
    "Readout kind": "Ki",
    "Measured number": 113
  },
  {
    "Molecule": "CC(Sc1nc2ccccc2c(=O)n1CCc1ccc(S(N)(=O)=O)cc1)C(=O)Nc1ccc(Cl)cc1 (stereo not shown)",
    "Readout kind": "Ki",
    "Measured number": 66.7
  },
  {
    "Molecule": "NS(=O)(=O)c1ccc(CCn2c(SCC(=O)c3ccc(F)cc3)nc3ccccc3c2=O)cc1",
    "Readout kind": "Ki",
    "Measured number": 9.1
  },
  {
    "Molecule": "CC(Sc1nc2ccccc2c(=O)n1CCc1ccc(S(N)(=O)=O)cc1)C(=O)c1ccccc1 (stereo not shown)",
    "Readout kind": "Ki",
    "Measured number": 76.8
  }
]

###

- Test system: hCA XII (Homo sapiens)
- Construct: gene CA12; recombinant, obtained in-house
- Protocol details: stopped-flow CA inhibition assay
- Type: biochemical
Readout kind: Ki (nM)

[
  {
    "Chem smiles": "CCOc1ccc(NC(=O)CSc2nc3ccccc3c(=O)n2CCc2ccc(S(N)(=O)=O)cc2)cc1",
    "Measured number": 59.7
  },
  {
    "Chem smiles": "Cc1ccc(NC(=O)CSc2nc3ccccc3c(=O)n2CCc2ccc(S(N)(=O)=O)cc2)cc1",
    "Measured number": 45.2
  },
  {
    "Chem smiles": "NS(=O)(=O)c1ccc(CCn2c(SCC(=O)Nc3ccc(Br)cc3)nc3ccccc3c2=O)cc1",
    "Measured number": 61
  },
  {
    "Chem smiles": "COc1ccc(CNC(=O)CSc2nc3ccccc3c(=O)n2CCc2ccc(S(N)(=O)=O)cc2)cc1OC",
    "Measured number": 97.3
  }
]

###

- Test system: hCA I (Homo sapiens, UniProt P00915)
- Construct: gene CA1; recombinant, obtained in-house
- Sequence (P00915 2-261): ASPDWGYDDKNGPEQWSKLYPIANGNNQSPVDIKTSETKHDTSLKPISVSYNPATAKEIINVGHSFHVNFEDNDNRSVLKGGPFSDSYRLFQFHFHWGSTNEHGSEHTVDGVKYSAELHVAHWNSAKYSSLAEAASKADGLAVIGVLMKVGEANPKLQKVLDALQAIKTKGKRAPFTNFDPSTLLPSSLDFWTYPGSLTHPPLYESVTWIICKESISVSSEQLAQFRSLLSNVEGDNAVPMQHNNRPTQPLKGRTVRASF
- Protocol details: stopped-flow CA inhibition assay
- Assay type: biochemical
Listed here are compounds together with their documented Ki.

[
  {
    "Compound": "NS(=O)(=O)c1ccc(CCn2c(SCC(=O)NCc3ccc(F)cc3)nc3ccccc3c2=O)cc1",
    "Test system": "hCA I (Homo sapiens, UniProt P00915)",
    "Measurement units": "nM",
    "Ki": 2050
  },
  {
    "Compound": "NS(=O)(=O)c1ccc(CCn2c(SCC(=O)Nc3ccc(Cl)cc3)nc3ccccc3c2=O)cc1",
    "Test system": "hCA I (Homo sapiens, UniProt P00915)",
    "Measurement units": "nM",
    "Ki": 726
  },
  {
    "Compound": "CC(Sc1nc2ccccc2c(=O)n1CCc1ccc(S(N)(=O)=O)cc1)C(=O)c1ccccc1 (stereo not shown)",
    "Test system": "hCA I (Homo sapiens, UniProt P00915)",
    "Measurement units": "nM",
    "Ki": 978
  },
  {
    "Compound": "NS(=O)(=O)c1ccc(CCn2c(SCC(=O)c3ccc(F)cc3)nc3ccccc3c2=O)cc1",
    "Test system": "hCA I (Homo sapiens, UniProt P00915)",
    "Measurement units": "nM",
    "Ki": 400
  },
  {
    "Compound": "NS(=O)(=O)c1ccc(CCn2c(SCC(=O)Nc3ccc(Br)cc3)nc3ccccc3c2=O)cc1",
    "Test system": "hCA I (Homo sapiens, UniProt P00915)",
    "Measurement units": "nM",
    "Ki": 697
  },
  {
    "Compound": "NS(=O)(=O)c1ccc(CCn2c(SCC(=O)Nc3ccccc3)nc3ccccc3c2=O)cc1",
    "Test system": "hCA I (Homo sapiens, UniProt P00915)",
    "Measurement units": "nM",
    "Ki": 460
  },
  {
    "Compound": "Cc1ccc(C(=O)CSc2nc3ccccc3c(=O)n2CCc2ccc(S(N)(=O)=O)cc2)cc1",
    "Test system": "hCA I (Homo sapiens, UniProt P00915)",
    "Measurement units": "nM",
    "Ki": 471
  },
  {
    "Compound": "COc1ccc(NC(=O)CSc2nc3ccccc3c(=O)n2CCc2ccc(S(N)(=O)=O)cc2)cc1",
    "Test system": "hCA I (Homo sapiens, UniProt P00915)",
    "Measurement units": "nM",
    "Ki": 2570
  },
  {
    "Compound": "CCOc1ccc(NC(=O)CSc2nc3ccccc3c(=O)n2CCc2ccc(S(N)(=O)=O)cc2)cc1",
    "Test system": "hCA I (Homo sapiens, UniProt P00915)",
    "Measurement units": "nM",
    "Ki": 3650
  },
  {
    "Compound": "Cc1ccc(NC(=O)CSc2nc3ccccc3c(=O)n2CCc2ccc(S(N)(=O)=O)cc2)cc1",
    "Test system": "hCA I (Homo sapiens, UniProt P00915)",
    "Measurement units": "nM",
    "Ki": 878
  },
  {
    "Compound": "NS(=O)(=O)c1ccc(CCn2c(SCC(=O)c3ccccc3)nc3ccccc3c2=O)cc1",
    "Test system": "hCA I (Homo sapiens, UniProt P00915)",
    "Measurement units": "nM",
    "Ki": 593
  },
  {
    "Compound": "NS(=O)(=O)c1ccc(CCn2c(SCC(=O)c3ccc(Br)cc3)nc3ccccc3c2=O)cc1",
    "Test system": "hCA I (Homo sapiens, UniProt P00915)",
    "Measurement units": "nM",
    "Ki": 1450
  },
  {
    "Compound": "CC(=O)c1ccc(NC(=O)CSc2nc3ccccc3c(=O)n2CCc2ccc(S(N)(=O)=O)cc2)cc1",
    "Test system": "hCA I (Homo sapiens, UniProt P00915)",
    "Measurement units": "nM",
    "Ki": 1700
  },
  {
    "Compound": "COc1cc(NC(=O)CSc2nc3ccccc3c(=O)n2CCc2ccc(S(N)(=O)=O)cc2)cc(OC)c1OC",
    "Test system": "hCA I (Homo sapiens, UniProt P00915)",
    "Measurement units": "nM",
    "Ki": 2670
  },
  {
    "Compound": "CC(Sc1nc2ccccc2c(=O)n1CCc1ccc(S(N)(=O)=O)cc1)C(=O)Nc1ccc(Cl)cc1 (stereo not shown)",
    "Test system": "hCA I (Homo sapiens, UniProt P00915)",
    "Measurement units": "nM",
    "Ki": 3630
  },
  {
    "Compound": "COc1ccc(CNC(=O)CSc2nc3ccccc3c(=O)n2CCc2ccc(S(N)(=O)=O)cc2)cc1OC",
    "Test system": "hCA I (Homo sapiens, UniProt P00915)",
    "Measurement units": "nM",
    "Ki": 5470
  }
]
